Cited source for all entries: patent US9598423B2

- target.or.system: CK1ε (Homo sapiens (Human), UniProt P49674)
- Sequence (P49674 whole entry): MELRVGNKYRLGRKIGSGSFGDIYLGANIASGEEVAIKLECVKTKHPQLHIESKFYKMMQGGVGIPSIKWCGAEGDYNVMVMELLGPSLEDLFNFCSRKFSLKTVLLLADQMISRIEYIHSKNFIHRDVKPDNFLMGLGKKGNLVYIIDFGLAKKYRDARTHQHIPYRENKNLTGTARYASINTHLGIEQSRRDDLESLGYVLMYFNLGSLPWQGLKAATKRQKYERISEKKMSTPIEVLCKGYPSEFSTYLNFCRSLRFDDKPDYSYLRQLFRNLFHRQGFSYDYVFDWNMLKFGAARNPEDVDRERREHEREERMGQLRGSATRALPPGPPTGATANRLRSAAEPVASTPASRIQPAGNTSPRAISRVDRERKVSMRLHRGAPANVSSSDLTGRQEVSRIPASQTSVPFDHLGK
- experimental.protocol: CK1ε kinase assay (Caliper LABCHIP electrophoretic separation of fluoresceinated peptide substrate and product)
- Assay type: biochemical
- measurement.context: 200 pM CK1ε, 50 μM ATP, 1.5 μM peptide substrate, 22 hours at room temperature; read-out: CK1ε (IC50)
test.readout: IC50

Reference set, count: 5
[
  {
    "compound.string": "NC(=O)c1c(-c2cc(Cl)c(F)c(Cl)c2)nn2c1CN(C(=O)Nc1ccc(C(F)(F)F)cc1)CC2",
    "IC50": "0.01 to 10 nM"
  },
  {
    "compound.string": "NC(=O)c1c(-c2cncc(Cl)c2)nn2c1CN(C(=O)Nc1ccc(Cl)c(Cl)c1)CC2",
    "IC50": "0.01 to 10 nM"
  },
  {
    "compound.string": "NC(=O)c1c(-c2cccc(F)c2)nn2c1CN(C(=O)Nc1ccnnc1)CC2",
    "IC50": "0.01 to 10 nM"
  },
  {
    "compound.string": "COc1ccc(Cl)cc1-c1nn2c(c1C(N)=O)CN(C(=O)Nc1ccc(C#N)cc1)CC2",
    "IC50": "10 to 100 nM"
  },
  {
    "compound.string": "CC(=O)Nc1cccc(-c2nn3c(c2C(N)=O)CN(C(=O)Nc2ccc(C#N)cc2)CC3)c1",
    "IC50": "100 to 2000 nM"
  }
]

Value lookup for IC50; key = "N#Cc1ccc(NC(=O)N2CCn3nc(-c4cccc(OC(F)(F)F)c4)c(C(N)=O)c3C2)cc1" 10 to 100 nM

Value lookup for IC50; key = "NC(=O)c1c(-c2ccc(Cl)c(Cl)c2)nn2c1CN(C(=O)Nc1cc(F)cc(C(F)(F)F)c1)CC2" 0.01 to 10 nM

Value lookup for IC50; key = "NC(=O)c1c(-c2cccc(F)c2)nn2c1CN(C(=O)Nc1ccc(Cl)c(Cl)c1)CC2" 0.01 to 10 nM

###

- target.or.system: CK1δ (Homo sapiens (Human))
- Sequence (P48730 whole entry): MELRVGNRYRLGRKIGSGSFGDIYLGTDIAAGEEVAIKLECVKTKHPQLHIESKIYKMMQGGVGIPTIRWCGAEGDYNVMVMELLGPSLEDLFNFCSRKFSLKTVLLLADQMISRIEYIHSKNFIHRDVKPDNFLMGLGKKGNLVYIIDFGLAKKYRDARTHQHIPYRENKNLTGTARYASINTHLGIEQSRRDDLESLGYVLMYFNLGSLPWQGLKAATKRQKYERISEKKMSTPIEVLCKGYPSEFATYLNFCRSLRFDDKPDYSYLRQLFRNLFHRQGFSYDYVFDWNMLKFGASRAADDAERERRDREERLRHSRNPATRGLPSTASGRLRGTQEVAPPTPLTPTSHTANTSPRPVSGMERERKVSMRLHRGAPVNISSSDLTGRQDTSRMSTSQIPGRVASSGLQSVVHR
- experimental.protocol: CK1δ kinase assay (Caliper LABCHIP electrophoretic separation of fluoresceinated peptide substrate and product)
- Type: biochemical
- measurement.context: 200 pM CK1δ, 50 μM ATP, 1.5 μM peptide substrate, 22 hours at room temperature; read-out: CK1δ (IC50)
- Method: CK1ε and CK1δ Kinase Assays The kinase assay was performed in V-bottom 384-well plates. […] The reaction was incubated at room temperature for 22 hours and terminated by adding 45 μl of 35 mM EDTA to each sample. The reaction mixture was analyzed on the Caliper LABCHIP®3000 (Caliper, Hopkinton, Mass.) by electrophoretic separation of the unphosphorylated substrate and phosphorylated product. […] Compounds were dissolved at 10 mM in dimethylsulfoxide (DMSO) and evaluated at eleven concentrations. […]
test.readout: IC50

[
  {
    "compound.string": "CS(=O)(=O)c1ccc(-c2nn3c(c2C(N)=O)CN(C(=O)Nc2ccc(C#N)cc2)CC3)cc1",
    "IC50": "100 to 2000 nM"
  },
  {
    "compound.string": "NC(=O)c1c(-c2cccc(F)c2)nn2c1CN(C(=O)NC1CCCC1)CC2",
    "IC50": "0.01 to 10 nM"
  },
  {
    "compound.string": "N#Cc1ccc(NC(=O)N2Cc3c(C(N)=O)c(-c4ccc(F)c(Cl)c4)nn3CC23CC3)cc1",
    "IC50": "10 to 100 nM"
  }
]

Moving on to another compound below.
Value lookup for IC50; key = "N#Cc1ccc(NC(=O)N2CCn3nc(-c4cc(Cl)c5[nH]ncc5c4)c(C(N)=O)c3C2)cc1F" 0.01 to 10 nM
